Source listed as patent US20060246071A1.

target: human Ang-2 mutated at positions 365 and 367 (human) (UniProt O15123); test: ELISA
Sequence (O15123 19-496, change not shown): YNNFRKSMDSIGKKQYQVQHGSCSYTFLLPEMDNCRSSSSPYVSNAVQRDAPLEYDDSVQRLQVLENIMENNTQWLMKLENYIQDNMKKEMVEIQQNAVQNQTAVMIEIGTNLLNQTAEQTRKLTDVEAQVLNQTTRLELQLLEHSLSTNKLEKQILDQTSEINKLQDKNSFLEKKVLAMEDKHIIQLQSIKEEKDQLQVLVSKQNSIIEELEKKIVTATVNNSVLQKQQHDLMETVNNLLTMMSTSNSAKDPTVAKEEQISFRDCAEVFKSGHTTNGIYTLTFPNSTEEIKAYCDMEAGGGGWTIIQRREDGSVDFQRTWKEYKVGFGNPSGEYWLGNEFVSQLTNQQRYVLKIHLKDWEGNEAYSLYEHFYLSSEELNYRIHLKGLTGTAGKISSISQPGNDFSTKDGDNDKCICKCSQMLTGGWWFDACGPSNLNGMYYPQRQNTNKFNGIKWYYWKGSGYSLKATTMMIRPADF
propertyLabel: percent binding compared to human Ang-2 (%)
Response body: numeric value in %, unit text excluded.

These solved cases illustrate the format of a correct answer.
mAb 5.28.1 (antibody, V domains shown) VH: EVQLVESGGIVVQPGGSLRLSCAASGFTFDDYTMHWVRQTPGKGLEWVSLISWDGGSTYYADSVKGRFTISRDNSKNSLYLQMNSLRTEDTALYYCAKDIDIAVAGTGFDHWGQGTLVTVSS VL: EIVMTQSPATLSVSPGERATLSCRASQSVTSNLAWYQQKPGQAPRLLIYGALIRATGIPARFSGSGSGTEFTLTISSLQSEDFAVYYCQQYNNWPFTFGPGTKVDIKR | 100
mAb 5.86.1 (antibody, V domains shown) VH: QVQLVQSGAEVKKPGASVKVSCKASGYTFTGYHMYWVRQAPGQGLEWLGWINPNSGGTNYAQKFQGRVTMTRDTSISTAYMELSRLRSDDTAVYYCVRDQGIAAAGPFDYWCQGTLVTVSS VL: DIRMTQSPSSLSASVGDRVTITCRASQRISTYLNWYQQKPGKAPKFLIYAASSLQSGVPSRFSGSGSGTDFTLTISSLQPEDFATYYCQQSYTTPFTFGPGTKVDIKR | 100

From here, focus on the item given below.
Task item: What value of percent binding compared to human Ang-2 has been recorded for this entry: mAb 3.28.1 (antibody, part only; not given: light chain, V domains shown, part only) VH: EVQLVESGGGLVQPGGSLRLSCAASGFTFSSSWMSWVRQAPGKGLEWVANIKQDGSDKYYVDSVKGRFTISRDNAKNSLYLQMNSLRAEDTAVYYCVRDKGSGWFDYWGQGTLVTVSSA
Reply: 100
